Test system: UO-31 renal
Assay: NCI-60 one-dose screen, 48 h (100 = growth as untreated, 0 = no growth, -100 = all killed)
Conditions: 10 µM unless noted
The panel holds about 83,000 compounds, 20% with a hit somewhere; the sample as a whole holds those more often.

{"compound": "O=C1OC(c2ccccc2)C(O)=C1c1ccccc1 (stereo not given)", "tested.target": "UO-31 renal", "growth, %": 79.7}
{"compound": "O=c1cc(CSc2nnc(-c3ccc(F)cc3)o2)c2ccc3ccccc3c2o1", "tested.target": "UO-31 renal", "growth, %": 77.7}
{"compound": "COc1cc2nnc3c4cccnc4[nH]c3c2cc1OC", "tested.target": "UO-31 renal", "growth, %": -52.8}
{"compound": "NC(=NCCCOc1ccc(Cl)cc1)Nc1ccc(C(F)(F)F)cc1", "tested.target": "UO-31 renal", "growth, %": 37.1}
{"compound": "O=C1/C(=C/c2ccc(OCCCOc3ccc(Cl)cc3)cc2)N=C2SCCCN12", "tested.target": "UO-31 renal", "growth, %": 70.9}
